target: Prostaglandin G/H synthase 1 (Homo sapiens); assay: Inhibition of human Prostaglandin G/H synthase 1 at 0.1 ug/mL expressed as mean percent inhibition of control PGE-2 production
assay endpoint: inhibition (%)

See these solved cases before continuing.
[
  {
    "compound": "CC1(C)Sc2ccccc2C(O)=C1C(=O)Nc1cccc(Cl)c1",
    "inhibition [%]": 3
  },
  {
    "compound": "COc1ccc2c(c1)S(=O)(=O)N(C)C(C(=O)Nc1ccccn1)=C2O",
    "inhibition [%]": -2
  },
  {
    "compound": "COc1ccc2c(c1)S(=O)(=O)N(C)C(C(=O)Nc1ncc(C)s1)=C2O",
    "inhibition [%]": 6
  },
  {
    "compound": "CN1C(O)=C(C(=O)Nc2ccccc2Cl)c2cc(F)ccc2S1(=O)=O",
    "inhibition [%]": 32
  },
  {
    "compound": "CC1Sc2ccc(Cl)cc2C(O)=C1C(=O)Nc1cccc(Cl)c1 (stereo not given)",
    "inhibition [%]": 15
  },
  {
    "compound": "CN1C(O)=C(C(=O)Nc2nccs2)c2c(ccc3ccccc23)S1(=O)=O",
    "inhibition [%]": 24
  },
  {
    "compound": "CN1C(C(=O)Nc2ccccn2)=C(O)c2ccccc2S1(=O)=O",
    "inhibition [%]": -7
  },
  {
    "compound": "CN1C(C(=O)Nc2ccccc2)=C(O)c2ccc3ccccc3c2S1(=O)=O",
    "inhibition [%]": 4
  }
]

a: Cc1cnc(NC(=O)C2=C(O)c3ccccc3SC2)s1
b: COc1ccc2c(c1)c1c(n2C)C(O)=C(C(=O)Nc2ccccc2)N(C)S1(=O)=O
c: Cc1cnc(NC(=O)C2=C(O)c3ccc(Cl)cc3S(=O)(=O)N2C)s1
Inquiry: Please rank these compounds by inhibition in descending order. // format: requested-order list of labels
Reply text: a, b, c

A: Cc1cnc(NC(=O)C2=C(O)c3cc(Cl)ccc3SC2C)s1 (stereo not given)
B: O=C1/C(=C(/O)Nc2ccc(Cl)cc2Cl)c2cc(Cl)ccc2C(=O)N1Cc1ccccc1
C: CCc1cnc(NC(=O)C2=C(O)c3ccccc3S(=O)(=O)N2C)s1
D: O=C(Nc1ccc(Cl)cc1Cl)C1=C(O)N(C2CC2)S(=O)(=O)c2ccc(Cl)cc21
E: CN1C(C(=O)Nc2nccs2)=C(O)c2c(c3ccccc3n2C)S1(=O)=O
Inquiry: Please rank these compounds by inhibition in descending order. // format: requested-order list of labels
Reply text: D, A, B, E, C
(D: 24%, A: 12%, B: 6%, E: -2%, C: -4%)

P: Cc1ccc2c(c1)S(=O)(=O)N(C)C(C(=O)Nc1ncc(C)s1)=C2O
Q: Cc1cc2c(s1)C(C(=O)Nc1ccccn1)=C(O)N(C)S2(=O)=O
Inquiry: Would you kindly point out which of P and Q has the smaller inhibition figure? Reply briefly: the label of your chosen item.
Reply text: P
(P: 8%, Q: 15%)

I: Cc1cc(NC(=O)C2=C(O)c3ccccc3S(=O)(=O)N2C)no1
II: CN1C(=O)/C(=C(/O)Nc2ccc(Cl)cc2Cl)c2cc(Cl)ccc2C1=O
III: O=C(Nc1cccc(Cl)c1)C1=C(O)c2ccccc2S(=O)(=O)C1
IV: CN1C(C(=O)Nc2nccs2)=C(O)c2ccc3ccccc3c2S1(=O)=O
Inquiry: Would you mind ranking these compounds by ascending inhibition? // format: requested-order list of labels
Reply text: I, III, II, IV
(I: -2%, III: 6%, II: 36%, IV: 75%)

I: CN1C(C(=O)Nc2ccccn2)=C(O)c2cc(Cl)ccc2S1(=O)=O
II: CN1C(O)=C(C(=O)Nc2ccc(Cl)cc2Cl)c2cc(F)ccc2S1(=O)=O
Inquiry: Between I and II , whose recorded inhibition is greater? Reply briefly: the label of your chosen item.
Reply text: II
(II: 40%, I: 3%)

P: CN1C(C(=O)Nc2ccccc2)=C(O)c2c(c3cc(Cl)ccc3n2C)S1(=O)=O
Q: COc1ccc2c(c1)S(=O)(=O)N(C)C(C(=O)Nc1ccccc1)=C2O
Inquiry: Between P and Q , whose recorded inhibition is greater? Reply briefly: the label of your chosen item.
Reply text: P
(P: 1%, Q: -8%)

I: O=C(Nc1ccc(Cl)cc1Cl)C1=C(O)N(Cc2ccccc2)S(=O)(=O)c2ccc(Cl)cc21
II: Cc1nnc(NC(=O)C2=C(O)c3ccccc3S(=O)(=O)N2C)s1
Inquiry: Between I and II , whose recorded inhibition is greater? Reply briefly: the label of your chosen item.
Reply text: I
(I: 4%, II: 0%)

###

target: Prostaglandin G/H synthase 1 (Homo sapiens); assay: Inhibition of human Prostaglandin G/H synthase 1 at 0.1 ug/mL expressed as mean percent inhibition of control PGE-2 production
assay endpoint: inhibition (%)

See these solved cases before continuing.
[
  {
    "query smiles": "O=C(Nc1cccc(Cl)c1)C1=C(O)c2cc(Cl)ccc2S(=O)(=O)C1",
    "target or system": "Prostaglandin G/H synthase 1 (Homo sapiens)",
    "units of measure": "%",
    "measurement": -10
  },
  {
    "query smiles": "CN1C(O)=C(C(=O)Nc2ccccc2Cl)c2cc(Cl)c(Cl)cc2S1(=O)=O",
    "target or system": "Prostaglandin G/H synthase 1 (Homo sapiens)",
    "units of measure": "%",
    "measurement": 28
  }
]

1: Cc1ccc2c(c1)S(=O)(=O)N(C)C(O)=C2C(=O)Nc1ccccc1Cl
2: CN1C(C(=O)Nc2ccccn2)=C(O)c2c(c3ccccc3n2C)S1(=O)=O
Inquiry: Would you kindly point out which of 1 and 2 has the smaller inhibition figure? Reply briefly: the label of your chosen item.
Reply text: 2

###

biological target: Prostaglandin G/H synthase 1 (Homo sapiens, UniProt P23219); test: Inhibition of human Prostaglandin G/H synthase 1 at 10 ug/mL expressed as mean percent inhibition of control PGE-2 production
Sequence (P23219 whole entry): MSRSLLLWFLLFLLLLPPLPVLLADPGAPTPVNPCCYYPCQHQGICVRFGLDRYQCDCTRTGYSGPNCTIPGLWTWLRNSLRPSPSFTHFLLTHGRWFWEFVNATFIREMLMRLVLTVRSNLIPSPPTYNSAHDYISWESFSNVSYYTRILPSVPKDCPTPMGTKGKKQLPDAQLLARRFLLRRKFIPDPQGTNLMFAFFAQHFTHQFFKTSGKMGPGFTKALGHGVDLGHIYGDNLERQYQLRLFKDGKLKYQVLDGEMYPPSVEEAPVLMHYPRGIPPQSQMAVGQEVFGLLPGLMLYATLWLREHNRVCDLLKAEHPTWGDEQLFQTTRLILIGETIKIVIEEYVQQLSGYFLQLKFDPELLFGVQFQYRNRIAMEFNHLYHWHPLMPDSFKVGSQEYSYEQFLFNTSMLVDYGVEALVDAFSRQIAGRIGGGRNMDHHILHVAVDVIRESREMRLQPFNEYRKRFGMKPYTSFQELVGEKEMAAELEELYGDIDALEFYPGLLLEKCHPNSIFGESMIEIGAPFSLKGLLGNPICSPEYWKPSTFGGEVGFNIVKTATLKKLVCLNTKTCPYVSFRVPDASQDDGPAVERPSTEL
assay endpoint: inhibition (%)

[
  {
    "query smiles": "Cc1cnc(NC(=O)C2=C(O)c3ccc(Cl)cc3S(=O)(=O)N2C)s1",
    "inhibition / %": 85
  },
  {
    "query smiles": "Cc1cnc(N/C(O)=C2\\C(=O)N(C)C(=O)c3ccc(Cl)cc32)s1",
    "inhibition / %": 76
  }
]

A: CN1C(C(=O)Nc2nccs2)=C(O)c2sc3cc(Cl)ccc3c2S1(=O)=O
B: CN1C(C(=O)Nc2nccs2)=C(O)c2c(ccc3ccccc23)S1(=O)=O
Inquiry: Between A and B , whose recorded inhibition is greater? Reply briefly: the label of your chosen item.
Reply text: A

Reference source for all entries: ChEMBL document CHEMBL1129978
